tested on: MRCKB; construct: gene CDC42BPB; settings: concentration: 1 μM, replicates: in singlicate; n = 1;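 also: KINOMEscan kinase panel screen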
attributeMeasured: %Inh (%)
The answer is to be given in %; state only the numeric part.

Request: # return recorded %Inh for entry Cl.Oc1cccc(Nc2ccnc3cc(-c4ccncc4)ccc23)c1 [GW494601]
Response: 0

Request: # return recorded %Inh for entry Cc1cccc(Cn2ccn3c(=O)cc(N4CCOCC4)nc23)c1 [GSK2297542]
Response: 6

Request: # return recorded %Inh for entry CN1c2ccc(NCc3ccc(F)cc3)cc2-c2c(cnn2C)S1(=O)=O
Response: 0

Request: # return recorded %Inh for entry COc1cc2c(cc1OCCN1CCN(C)CC1)ncc1c3ccc(C#N)cc3[nH]c21
Response: 0

Request: # return recorded %Inh for entry Cc1cccc(-c2nc(Nc3ccc4ncsc4c3)c3ccccc3n2)n1 [GW867588]
Response: 33

Request: # return recorded %Inh for entry COc1cc2ncn(-c3cc(OCc4sccc4Cl)c(C(N)=O)s3)c2cc1OC [GSK448459]
Response: 0

Request: # return recorded %Inh for entry Cn1cc(-c2ccc3c(c2)CCN3C(=O)Cc2ccccc2Cl)c2c(N)ncnc21 [GSK2608885]
Response: 92.2

Request: # return recorded %Inh for entry O=c1cc(N2CCOCC2)nc2n(Cc3cccc(C(F)(F)F)c3)ccn12 [GSK2297543]
Response: 0

Request: # return recorded %Inh for entry CC(C)Oc1ccc2c(-c3ccnc(Nc4ccc(N5CCN(C)CC5)cc4)n3)cnn2n1 [GW696155]
Response: 0

Request: # return recorded %Inh for entry O=c1cc(N2CCOCC2)nc2n(Cc3cccc(F)c3)ccn12 [GSK2297430]
Response: 0

Request: # return recorded %Inh for entry COc1ccc(Nc2nccc(N3CCC(NC(=O)Nc4cc(C)ccc4C)C3)n2)cc1 (stereo not shown) [GSK1379741]
Response: 0

Request: # return recorded %Inh for entry CSc1ccc(-c2cc3ncnc(SCC(=O)O)c3s2)cc1
Response: 34

Request: # return recorded %Inh for entry O=C(c1ccc(-c2cc(-c3c[nH]nc3-c3ccccn3)ccn2)cc1)N1CCOCC1 [GW812171]
Response: 12

Request: # return recorded %Inh for entry COc1cc2c(cc1OC[C@@H](O)CO)ncc1c3ccc(C#N)cc3[nH]c21
Response: 0

Request: # return recorded %Inh for entry Fc1ccc(-c2ncn(CCCN3CCOCC3)c2-c2ccccn2)cc1 [SB-211742]
Response: 0

Request: # return recorded %Inh for entry Cc1nnc(-c2ccc3occ(-c4ccc(C(C)O)cc4)c3c2)o1 (stereo not shown)
Response: 0

Request: # return recorded %Inh for entry O=C(NCCNc1ccnc(Nc2ccc(F)cc2)n1)c1cc2ccccc2s1 [GSK1379874]
Response: 0

Request: # return recorded %Inh for entry CCCCCc1nc2c(N)ncnc2n1CCCCC [SKF-97255]
Response: 0

Request: # return recorded %Inh for entry Cc1ccc(C(=O)NCC(N)=O)cc1-n1c(C)cc(OCc2ccc(F)cc2F)c(Br)c1=O
Response: 12

---

Hi there, I'd appreciate the recorded %Inh for every entry that follows.
test system: TSSK3; details: concentration: 1 μM, replicates: in singlicate; n = 1
The answer is to be given in %; state only the numeric part.

Request: # return recorded %Inh for entry CNc1ncnc2[nH]ncc12 [SKF-18355]
Response: 0

Request: # return recorded %Inh for entry COc1ccc(Nc2ncc(C#N)c(Nc3ccccc3C(N)=O)n2)cc1N1CCN(C)CC1.Cl [GSK1558669]
Response: 79

Request: # return recorded %Inh for entry CN(C(=O)c1ccc(-c2cc(-c3c[nH]nc3-c3ccccn3)ccn2)cc1)C1CCOCC1 [GW810083]
Response: 33

Request: # return recorded %Inh for entry CN1c2ccc(CNc3ccc(F)cc3)cc2-c2c(cnn2C)S1(=O)=O
Response: 0

---

system: MARK3; settings: concentration: 1 μM, replicates: in singlicate; n = 1
attributeMeasured: %Inh (%)
The answer is to be given in %; state only the numeric part.

Request: Would you please give the reported %Inh of O=C(c1ccc(-c2cc(-c3c[nH]nc3-c3ccccn3)ccn2)cc1)N1CCOCC1 [GW812171] with MARK3?
Response: 17

Request: Would you please give the reported %Inh of COc1cc(Nc2nccc(N3CCC(NC(=O)c4cccc(NC(C)=O)c4)C3)n2)cc(OC)c1OC (centres unmarked) [GSK1379754] with MARK3?
Response: 0

Request: Would you please give the reported %Inh of O=C(Nc1cccc(-c2nn3ncccc3c2-c2ccnc(Nc3cccc(C(F)(F)F)c3)n2)c1)c1c(F)cccc1F [GSK299495] with MARK3?
Response: 2

Request: Would you please give the reported %Inh of Cn1ccc2ncnc(Oc3ccc(NC(=O)Nc4ccncc4)c(Cl)c3)c21 with MARK3?
Response: 2

Request: Would you please give the reported %Inh of NCC(NC(=O)c1cc(-c2cn[nH]c2)c(-c2ccnc3[nH]ccc23)s1)c1ccccc1.O=C(O)C(F)(F)F.O=C(O)C(F)(F)F (centres unmarked) [GSK1325775] with MARK3?
Response: 0

Request: Would you please give the reported %Inh of NS(=O)(=O)c1cccc(-c2ccc3nccc(-c4cccc(S(N)(=O)=O)c4)c3c2)c1 [GW867253] with MARK3?
Response: 0

Request: Would you please give the reported %Inh of Cl.Nc1ncnc2occ(-c3ccc(NC(=O)Nc4cc(C(F)(F)F)ccc4F)cc3)c12 [SB-707548] with MARK3?
Response: 26

Request: Would you please give the reported %Inh of O=C(NCCNc1ccnc(Nc2ccc(F)cc2)n1)c1cc2ccccc2s1 [GSK1379874] with MARK3?
Response: 0

---

test system: YANK2; construct: gene STK32B; conditions: concentration: 1 μM, replicates: in singlicate; n = 1
attributeMeasured: %Inh (%)
The answer is to be given in %; state only the numeric part.

Request: # return recorded %Inh for entry COc1cc2ncn(-c3cc(OCc4sccc4Cl)c(C(N)=O)s3)c2cc1OC [GSK448459]
Response: 0

Request: # return recorded %Inh for entry [2H]C([2H])(c1cccc(C(F)(F)F)c1C)n1ccn2c(=O)nc(N3CCOCC3)cc12 [GSK2336394]
Response: 0

Request: # return recorded %Inh for entry Cc1c(Cn2c(C)nn3c(=O)cc(N4CCOC(C)C4)nc23)cccc1C(F)(F)F (centres unmarked) [GSK2344444]
Response: 0

Request: # return recorded %Inh for entry CN(C1=C(c2ccccc2)C(=O)NC1=O)c1ccccc1 [SB-334860]
Response: 15

Request: # return recorded %Inh for entry COc1ccc(Nc2ncc(C#N)c(Nc3ccccc3C(N)=O)n2)cc1N1CCN(C)CC1.Cl [GSK1558669]
Response: 68

Request: # return recorded %Inh for entry Cc1cccc(Cn2ccn3c(=O)cc(N4CCOCC4)nc23)c1 [GSK2297542]
Response: 0

Request: # return recorded %Inh for entry O=C(c1ccc(-c2cc(-c3c[nH]nc3-c3ccccn3)ccn2)cc1)N1CCOCC1 [GW812171]
Response: 63

Request: # return recorded %Inh for entry Cc1nnc(-c2ccc(C)c(-c3ccc(C(=O)Nc4ccc(NS(C)(=O)=O)cc4)cc3)c2)o1 [GW702865]
Response: 0

---

Hi there, I'd appreciate the recorded %Inh for every entry that follows.
test system: ABL1-nonphosphorylated; details: concentration: 1 μM, replicates: in singlicate; n = 1
The answer is to be given in %; state only the numeric part.

Request: # return recorded %Inh for entry COc1ccc(Nc2nccc(N3CCC(NC(=O)Nc4cc(C)ccc4C)C3)n2)cc1 (stereo not shown)
Response: 0

Request: # return recorded %Inh for entry Cc1nnc(-c2ccc3occ(-c4ccc(C(C)O)cc4)c3c2)o1 (stereo not shown)
Response: 64

Request: # return recorded %Inh for entry O=c1cc(N2CCOCC2)nc2n(Cc3cccc(F)c3)ccn12
Response: 0

Request: # return recorded %Inh for entry O=C(NCCNc1ccnc(Nc2ccc(F)cc2)n1)Nc1ccccc1F
Response: 0

---

test system: TNIK; settings: concentration: 1 μM, replicates: in singlicate; n = 1
attributeMeasured: %Inh (%)
The answer is to be given in %; state only the numeric part.

Request: # return recorded %Inh for entry CN(C1=C(c2ccccc2)C(=O)NC1=O)c1ccccc1 [SB-334860]
Response: 4

Request: # return recorded %Inh for entry COc1ccc(S(=O)(=O)NC2CCN(c3cc(C)nc(Nc4cccc(C#N)c4)n3)CC2)cc1.O=C(O)C(F)(F)F [GSK1653539]
Response: 0

Request: # return recorded %Inh for entry CCc1nc(-c2cccc(C)c2)c(-c2ccnc(NCc3ccccc3)c2)s1
Response: 24

Request: # return recorded %Inh for entry COCCNC(=O)c1ccc(-c2cc(C(=O)NC3CC3)cc(F)c2C)cc1 [GW868318]
Response: 0

Request: # return recorded %Inh for entry COc1ccc(Nc2nccc(N3CCC(NC(=O)Nc4cc(C)ccc4C)C3)n2)cc1 (centres unmarked) [GSK1379741]
Response: 0

Request: # return recorded %Inh for entry COc1ccc(COc2cc(-n3cnc4ccccc43)sc2C(N)=O)cc1 [GSK1024304]
Response: 51

Request: # return recorded %Inh for entry [2H]C([2H])(c1cccc(C(F)(F)F)c1C)n1ccn2c(=O)nc(N3CCOCC3)cc12 [GSK2336394]
Response: 0

Request: # return recorded %Inh for entry COc1cc(Nc2nccc(N3CCC(NC(=O)c4cccc(NC(C)=O)c4)C3)n2)cc(OC)c1OC (centres unmarked) [GSK1379754]
Response: 0

Request: # return recorded %Inh for entry Fc1ccc(-c2ncn(CCCN3CCOCC3)c2-c2cccnc2)cc1 [SB-211743]
Response: 13

Request: # return recorded %Inh for entry O=C(NCCCN1CCOCC1)c1cccc(Nc2nccc(Nc3ccc(Oc4ccccc4)cc3)n2)c1 [GW663929]
Response: 3

Request: # return recorded %Inh for entry Cc1cccc(Cn2ccn3c(=O)cc(N4CCOCC4)nc23)c1 [GSK2297542]
Response: 0

Request: # return recorded %Inh for entry CCn1cnc2c(N)ncnc21 [GW345098]
Response: 17

Request: # return recorded %Inh for entry Cc1ccc(NC(=O)c2ccnc(N3CCN(C)CC3)c2)cc1-c1ccc(C(=O)NCC2CC2)cc1 [GW775604]
Response: 0

Request: # return recorded %Inh for entry Cc1cccc(-c2nc(Nc3ccc4ncsc4c3)c3ccccc3n2)n1 [GW867588]
Response: 15

Request: # return recorded %Inh for entry Cc1nnc(-c2ccc3ncc(-c4ccc(S(C)=O)cc4)n3c2)o1 (centres unmarked)
Response: 0

Request: # return recorded %Inh for entry O=c1cc(N2CCOCC2)nc2n(Cc3cccc(Cl)c3Cl)c(C3CC3)nn12 [GSK2358994]
Response: 10

Request: # return recorded %Inh for entry O=C(NCCNc1ccnc(Nc2ccc(F)cc2)n1)c1cc2ccccc2s1 [GSK1379874]
Response: 0

Request: # return recorded %Inh for entry Cc1c2ccc(N(C)c3ccnc(Nc4cccc(S(N)(=O)=O)c4)n3)cc2nn1Cc1ccccc1.Cl.Cl [GW787226]
Response: 88

Request: # return recorded %Inh for entry CSc1ccc(-c2cc3ncnc(SCC(=O)O)c3s2)cc1
Response: 3

Request: # return recorded %Inh for entry Cl.Nc1ncnc2occ(-c3ccc(NC(=O)Nc4cc(C(F)(F)F)ccc4F)cc3)c12 [SB-707548]
Response: 67

Request: # return recorded %Inh for entry NCC(NC(=O)c1cc(-c2cn[nH]c2)c(-c2ccnc3[nH]ccc23)s1)c1ccccc1.O=C(O)C(F)(F)F.O=C(O)C(F)(F)F (centres unmarked) [GSK1325775]
Response: 39

Request: # return recorded %Inh for entry NS(=O)(=O)c1cccc(-c2ccc3nccc(-c4cccc(S(N)(=O)=O)c4)c3c2)c1 [GW867253]
Response: 16

Request: # return recorded %Inh for entry O=C(Nc1cccc(-c2nn3ncccc3c2-c2ccnc(Nc3cccc(C(F)(F)F)c3)n2)c1)c1c(F)cccc1F [GSK299495]
Response: 14

Request: # return recorded %Inh for entry NS(=O)(=O)CCc1cccc(Nc2nccc(-c3c(-c4cccc(NC(=O)c5c(F)cccc5F)c4)nn4ccccc34)n2)c1 [GSK336735]
Response: 85

Request: # return recorded %Inh for entry N#Cc1ccc(-c2cc(-c3c[nH]nc3-c3ccccn3)ccn2)cc1 [GW693028]
Response: 75

Request: # return recorded %Inh for entry CC(C)Oc1ccc2c(-c3ccnc(Nc4ccc(N5CCN(C)CC5)cc4)n3)cnn2n1 [GW696155]
Response: 32

Request: # return recorded %Inh for entry CC(C)(C)n1cnc2c(N)ncnc21 [SKF-97359]
Response: 0

Request: # return recorded %Inh for entry CCc1ccnc(/C=C/c2n[nH]c3cc(Sc4ccccc4C(=O)NC)ccc23)c1
Response: 5

Request: # return recorded %Inh for entry COc1ccc(CNC(=O)NC2CCN(c3ccnc(Nc4ccc(OC)cc4)n3)C2)cc1 (centres unmarked) [GSK1379727]
Response: 0

Request: # return recorded %Inh for entry O=C(NOCC1CC1)c1ccc(F)c(F)c1Nc1ccc(I)cc1Cl
Response: 2

Request: # return recorded %Inh for entry O=C(NCCNc1ccnc(Nc2ccc(F)cc2)n1)Nc1ccccc1F [GSK1379880]
Response: 0

Request: # return recorded %Inh for entry Cc1ccc(C(=O)NCC(N)=O)cc1-n1c(C)cc(OCc2ccc(F)cc2F)c(Br)c1=O
Response: 0

Request: # return recorded %Inh for entry c1ccc(-c2cc(-c3c[nH]nc3-c3ccccn3)ccn2)cc1 [GW576604]
Response: 72

Request: # return recorded %Inh for entry COc1cc2ncn(-c3cc(OCc4sccc4Cl)c(C(N)=O)s3)c2cc1OC [GSK448459]
Response: 74

Request: # return recorded %Inh for entry N#Cc1c(N2CCOCC2)sc(-c2ccn[nH]2)c1-c1ccc(Cl)cc1
Response: 0
